Hi there, I'd appreciate the recorded Dmax for every entry that follows.
# TESTED_TARGET: SMARCA2 (Homo sapiens, UniProt P51531)
# Sequence (P51531 whole entry): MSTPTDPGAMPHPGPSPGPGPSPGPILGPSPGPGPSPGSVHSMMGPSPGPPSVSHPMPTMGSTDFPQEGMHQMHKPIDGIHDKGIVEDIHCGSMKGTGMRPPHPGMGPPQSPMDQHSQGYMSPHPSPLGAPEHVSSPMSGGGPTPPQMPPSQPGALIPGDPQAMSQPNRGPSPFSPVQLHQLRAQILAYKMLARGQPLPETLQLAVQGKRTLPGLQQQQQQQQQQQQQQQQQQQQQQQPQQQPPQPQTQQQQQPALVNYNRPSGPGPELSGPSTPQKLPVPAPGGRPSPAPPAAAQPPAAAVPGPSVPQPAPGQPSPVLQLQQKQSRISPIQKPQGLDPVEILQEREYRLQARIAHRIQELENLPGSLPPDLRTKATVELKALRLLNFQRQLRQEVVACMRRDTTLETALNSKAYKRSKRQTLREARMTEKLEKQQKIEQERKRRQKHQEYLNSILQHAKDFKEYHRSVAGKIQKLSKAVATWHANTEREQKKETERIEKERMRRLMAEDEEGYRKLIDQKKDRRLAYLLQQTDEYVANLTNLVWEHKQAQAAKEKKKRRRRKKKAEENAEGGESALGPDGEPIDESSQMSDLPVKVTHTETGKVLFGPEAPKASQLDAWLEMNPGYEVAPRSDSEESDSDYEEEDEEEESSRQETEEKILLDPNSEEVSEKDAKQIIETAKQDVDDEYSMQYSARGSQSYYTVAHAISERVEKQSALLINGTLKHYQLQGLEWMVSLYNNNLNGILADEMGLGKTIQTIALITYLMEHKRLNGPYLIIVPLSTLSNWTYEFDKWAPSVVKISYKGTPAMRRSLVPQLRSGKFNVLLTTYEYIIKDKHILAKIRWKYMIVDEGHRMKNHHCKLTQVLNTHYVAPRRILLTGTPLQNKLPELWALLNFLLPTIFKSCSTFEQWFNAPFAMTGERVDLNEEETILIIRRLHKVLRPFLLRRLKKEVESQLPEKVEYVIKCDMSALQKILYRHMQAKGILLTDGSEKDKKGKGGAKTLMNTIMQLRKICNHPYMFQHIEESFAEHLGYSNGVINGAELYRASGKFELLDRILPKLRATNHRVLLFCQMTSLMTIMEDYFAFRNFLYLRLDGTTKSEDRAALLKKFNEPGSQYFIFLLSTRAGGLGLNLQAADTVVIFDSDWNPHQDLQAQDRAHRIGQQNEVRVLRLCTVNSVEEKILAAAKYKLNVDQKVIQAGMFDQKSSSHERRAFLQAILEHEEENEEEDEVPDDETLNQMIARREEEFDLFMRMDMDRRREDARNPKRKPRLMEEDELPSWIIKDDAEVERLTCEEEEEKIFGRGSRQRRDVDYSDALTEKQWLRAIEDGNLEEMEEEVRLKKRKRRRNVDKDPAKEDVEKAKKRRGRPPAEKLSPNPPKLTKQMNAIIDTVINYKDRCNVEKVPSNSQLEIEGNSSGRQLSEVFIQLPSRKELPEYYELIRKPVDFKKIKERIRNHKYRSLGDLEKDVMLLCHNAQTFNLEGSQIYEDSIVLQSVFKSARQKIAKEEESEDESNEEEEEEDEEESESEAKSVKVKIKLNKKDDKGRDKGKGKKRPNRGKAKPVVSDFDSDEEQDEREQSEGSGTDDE
# EXPERIMENT: HiBiT assay for protein degradation, Hela SMARCA2-HiBiT cells (A series);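 further: 24 h compound treatment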
# Type: cell-based
# Design: Hela cells were genetically modified via CRISPR/Cas9 to fuse HiBiT to the carboxy terminus of SMARCA2; host or cells: HeLa (CRISPR/Cas9 HiBiT knock-in)
# CONDITION_SUMMARY: Hela SMARCA2-HiBiT cells, 24 hours treatment; read-out: SMARC A2 Hela HiBit Dmax (%)

Report Dmax for Cc1ncsc1-c1ccc([C@H](CN2CCC(F)(F)CC2)NC(=O)[C@@H]2C[C@@H](O)CN2C(=O)[C@@H](n2cc([C@H]3CC[C@H](CN4CCC(c5ccc6c(c5)-n5c(nc(=O)c7c(Cl)cccc75)C65CCCCC5)CC4)CC3)nn2)C(C)(C)C)cc1 please.
> 90%

Report Dmax for COCCOCCOC[C@H](NC(=O)[C@@H]1C[C@@H](O)CN1C(=O)[C@@H](n1cc([C@H]2CC[C@H](CN3CCC(c4ccc5c(c4)-n4c(nc(=O)c6c(Cl)cccc64)C5(C)C)CC3)CC2)nn1)C(C)(C)C)c1ccc(-c2scnc2C)cc1 please.
70 to 90%

Report Dmax for Cc1ncsc1-c1ccc([C@H](CN2CCOCC2)NC(=O)[C@@H]2C[C@@H](O)CN2C(=O)[C@H](C(C)C)n2cc([C@H]3CC[C@H](CN4CCC(c5ccc6c(c5)-n5c(nc(=O)c7c(Cl)cccc75)C6(C)C)CC4)CC3)nn2)cc1 please.
> 90%

Report Dmax for Cc1ncsc1-c1ccc([C@H](CC(=O)N2CCC3(CCC(CN4CCC(c5ccc6c(c5)-n5c(nc(=O)c7c(Br)cccc75)C65CCCCC5)CC4)CC3)CC2)NC(=O)[C@@H]2C[C@@H](O)CN2C(=O)[C@@H](n2cc(C3CC3)nn2)C(C)(C)C)cc1 please.
> 90%

* * *

# TESTED_TARGET: SMARCA4 (Homo sapiens, UniProt P51532)
# Sequence (P51532 whole entry): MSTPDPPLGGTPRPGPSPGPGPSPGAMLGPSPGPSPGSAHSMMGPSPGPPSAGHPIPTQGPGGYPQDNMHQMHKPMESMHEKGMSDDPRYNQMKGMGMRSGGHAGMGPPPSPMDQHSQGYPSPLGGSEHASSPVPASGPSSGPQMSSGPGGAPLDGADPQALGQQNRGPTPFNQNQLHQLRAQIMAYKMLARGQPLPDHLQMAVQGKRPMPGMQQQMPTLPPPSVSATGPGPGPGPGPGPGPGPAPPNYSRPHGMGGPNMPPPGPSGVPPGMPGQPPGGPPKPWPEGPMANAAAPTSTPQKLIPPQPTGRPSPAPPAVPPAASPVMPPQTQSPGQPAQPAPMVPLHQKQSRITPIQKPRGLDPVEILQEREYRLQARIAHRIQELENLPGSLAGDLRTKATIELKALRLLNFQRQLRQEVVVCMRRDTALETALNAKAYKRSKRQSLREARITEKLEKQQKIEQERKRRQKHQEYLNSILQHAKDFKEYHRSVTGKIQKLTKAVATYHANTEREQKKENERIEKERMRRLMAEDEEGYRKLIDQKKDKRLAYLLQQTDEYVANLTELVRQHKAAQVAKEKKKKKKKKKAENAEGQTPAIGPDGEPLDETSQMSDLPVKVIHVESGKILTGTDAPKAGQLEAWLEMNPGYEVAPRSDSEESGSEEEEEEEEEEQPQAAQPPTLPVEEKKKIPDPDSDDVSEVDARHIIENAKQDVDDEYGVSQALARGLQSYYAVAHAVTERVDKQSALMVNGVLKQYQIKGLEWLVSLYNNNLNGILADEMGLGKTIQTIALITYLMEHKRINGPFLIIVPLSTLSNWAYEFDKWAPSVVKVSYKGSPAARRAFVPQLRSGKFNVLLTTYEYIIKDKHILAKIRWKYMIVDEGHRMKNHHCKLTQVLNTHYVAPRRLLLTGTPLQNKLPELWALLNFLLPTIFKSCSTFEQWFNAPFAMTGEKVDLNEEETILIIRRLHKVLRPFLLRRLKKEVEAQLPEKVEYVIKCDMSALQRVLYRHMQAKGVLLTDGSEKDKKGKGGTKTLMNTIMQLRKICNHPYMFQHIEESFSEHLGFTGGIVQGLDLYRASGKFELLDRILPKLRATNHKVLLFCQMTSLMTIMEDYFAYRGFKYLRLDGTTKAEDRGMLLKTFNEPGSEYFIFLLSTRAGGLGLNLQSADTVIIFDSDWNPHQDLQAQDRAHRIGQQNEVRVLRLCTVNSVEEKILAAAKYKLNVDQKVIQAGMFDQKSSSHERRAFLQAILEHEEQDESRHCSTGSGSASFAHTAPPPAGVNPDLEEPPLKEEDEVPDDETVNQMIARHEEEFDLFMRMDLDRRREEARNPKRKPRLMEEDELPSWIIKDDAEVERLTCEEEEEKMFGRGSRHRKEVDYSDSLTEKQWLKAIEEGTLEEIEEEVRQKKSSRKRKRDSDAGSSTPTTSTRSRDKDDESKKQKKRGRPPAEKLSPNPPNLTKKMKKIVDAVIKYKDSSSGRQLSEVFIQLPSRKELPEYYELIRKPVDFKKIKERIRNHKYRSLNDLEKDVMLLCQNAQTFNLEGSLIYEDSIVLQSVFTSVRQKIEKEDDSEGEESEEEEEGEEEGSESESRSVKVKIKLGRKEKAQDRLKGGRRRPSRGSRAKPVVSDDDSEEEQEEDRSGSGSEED
# EXPERIMENT: HiBiT assay for protein degradation, Hela SMARCA4-HiBiT cells (A series)
# Assay type: cell-based
# Set-up: fuse HiBiT to the carboxy terminus of SMARCA2 (Promega CS302365) or SMARCA4 (Promega CS3023225); host or cells: HeLa (CRISPR/Cas9 HiBiT knock-in)
# CONDITION_SUMMARY: Hela SMARCA4-HiBiT cells, 24 hours treatment; read-out: SMARC A4 Hela HiBit DC50
VALUE_TYPE: DC50

Report DC50 for Cc1ncsc1-c1ccc([C@H](CCCCCN2CCC(c3ccc4c(c3)C3(CCCCC3)c3nc(=O)c5c(Br)cccc5n3-4)CC2)NC(=O)[C@H]2C[C@H](O)CN2C(=O)[C@@H](NC(=O)C2(CN3CCOCC3)CC2)C(C)(C)C)cc1 please.
100 to 500 nM

Report DC50 for Cc1ncoc1-c1ccc([C@H](CN2CCOCC2)NC(=O)[C@@H]2C[C@@H](O)CN2C(=O)[C@@H](n2cc([C@H]3CC[C@H](CN4CCC(c5ccc6c(c5)-n5c(nc(=O)c7c(Cl)cccc75)C65CCCCC5)CC4)CC3)nn2)C(C)(C)C)cc1 please.
> 1000 nM

Report DC50 for COC(=O)C1CN(C[C@H](NC(=O)[C@@H]2C[C@@H](O)CN2C(=O)[C@@H](n2cc([C@H]3CC[C@H](CN4CCC(c5ccc6c(c5)-n5c(nc(=O)c7c(Cl)cccc75)C65CCCCC5)CC4)CC3)nn2)C(C)(C)C)c2ccc(-c3scnc3C)cc2)C1 please.
> 1000 nM

Report DC50 for CC(C)(C)[C@@H](C(=O)N1C[C@H](O)C[C@H]1C(=O)N[C@@H](CN1CCOCC1)c1ccc(-c2ccccn2)cc1)n1cc([C@H]2CC[C@H](CN3CCC(c4ccc5c(c4)-n4c(nc(=O)c6c(Cl)cccc64)C54CCCCC4)CC3)CC2)nn1 please.
> 1000 nM

Report DC50 for CC(C)(C)[C@@H](C(=O)N1C[C@H](O)C[C@H]1C(=O)N[C@@H](CN1CCOCC1)c1ccc(-c2ccccc2)cc1)n1cc([C@H]2CC[C@H](CN3CCC(c4ccc5c(c4)-n4c(nc(=O)c6c(Cl)cccc64)C54CCCCC4)CC3)CC2)nn1 please.
100 to 1000 nM

Report DC50 for Cc1ncsc1-c1ccc([C@H](CC(=O)N(C)C)NC(=O)[C@@H]2C[C@@H](O)CN2C(=O)[C@@H](n2cc([C@H]3CC[C@H](CN4CCC(c5ccc6c(c5)-n5c(nc(=O)c7c(Cl)cccc75)C65CCCCC5)CC4)CC3)nn2)C(C)(C)C)cc1 please.
> 1000 nM

Report DC50 for Cc1ncsc1-c1ccc([C@H](C)NC(=O)[C@@H]2C[C@@H](O)CN2C(=O)[C@H](C2CCN(C(=O)[C@H]3CC[C@H](CN4CCC(c5ccc6c(c5)-n5c(nc(=O)c7c(Cl)cccc75)C65CCCCC5)CC4)CC3)CC2)n2cc(C3CC3)nn2)cc1 please.
> 1000 nM

Report DC50 for COCCOCCOC[C@H](NC(=O)[C@@H]1C[C@@H](O)CN1C(=O)[C@@H](n1cc([C@H]2CC[C@H](CN3CCC(c4ccc5c(c4)-n4c(nc(=O)c6c(Cl)cccc64)C54CCCCC4)CC3)CC2)nn1)C(C)(C)C)c1ccc(-c2scnc2C)cc1 please.
> 1000 nM

* * *

# TESTED_TARGET: SMARCA2 (Homo sapiens, UniProt P51531)
# EXPERIMENT: HiBit assay in engineered HT1080 CRISPR knock-in cell, 6 hrs (B series), SMARCA2
# Assay type: cell-based
# CONDITION_SUMMARY: HT1080 CRISPR knock-in cells, 6 hrs incubation; read-out: SMARC A2 HT1080 HiBit DC50
VALUE_TYPE: DC50

Report DC50 for Cc1cc(C(C(=O)N2C[C@H](O)C[C@H]2C(=O)N[C@@H](CN2CCC(c3cccc4c3C(C)(C)c3nc(=O)c5c(Cl)cccc5n3-4)CC2)c2ccc(-c3scnc3C)cc2)C(C)C)on1 (some centres unmarked) [Compound B154] please.
< 100 nM

Report DC50 for Cc1ncsc1-c1ccc([C@H](CN2CCOCC2)NC(=O)[C@@H]2C[C@@H](O)CN2C(=O)C(c2cc(N3CCC(CN4CCC(c5ccc6c(c5)-n5c(nc(=O)c7c(Cl)cccc75)C6(C)C)CC4)CC3)no2)C(C)C)cc1 (some centres unmarked) [Compound B115] please.
< 100 nM

Report DC50 for Cc1ncsc1-c1ccc([C@H](CN2CCOCC2)NC(=O)[C@@H]2C[C@@H](O)CN2C(=O)[C@H](C(C)C)n2cc([C@H]3CC[C@H](CN4CCN(c5ccc6c(c5)-n5c(nc(=O)c7c(Cl)cccc75)C6(C)C)CC4)CC3)nn2)cc1 [Compound B129] please.
< 100 nM

Report DC50 for Cc1ncsc1-c1ccc2c(NC(=O)[C@@H]3C[C@@H](O)CN3C(=O)[C@@H](n3cc([C@H]4CC[C@H](CN5CCC(c6ccc7c(c6)-n6c(nc(=O)c8c(Cl)cccc86)C7(C)C)CC5)CC4)nn3)C(C)(C)C)nccc2c1 [Compound B143] please.
100 to 500 nM

Report DC50 for Cc1ncsc1-c1ccc([C@H](CN2CCOCC2)NC(=O)[C@@H]2C[C@@H](O)CN2C(=O)[C@@H](c2cc(N3CCC(c4ccc5c(c4)C(C)(C)c4nc(=O)c6c(Cl)cccc6n4-5)CC3)no2)C(C)C)cc1 [Compound B110] please.
< 100 nM

Report DC50 for Cc1ncsc1-c1ccc([C@H](C)NC(=O)[C@@H]2C[C@@H](O)CN2C(=O)[C@@H](NC(=O)CCN2CCC(c3ccc4c(c3)-n3c(nc(=O)c5c(Cl)cccc53)C4(C)C)CC2)C(C)(C)C)cc1 [Compound B43] please.
100 to 500 nM

Report DC50 for C[C@H](NC(=O)[C@@H]1C[C@@H](O)CN1C(=O)[C@@H](n1cc([C@H]2CC[C@H](CN3CCC(c4ccc5c(c4)-n4c(nc(=O)c6c(Cl)cccc64)C5(C)C)CC3)CC2)nn1)C(C)(C)C)c1ccc(-c2scnc2Cl)cc1 [Compound B117] please.
< 100 nM

Report DC50 for Cc1ncsc1-c1ccc([C@H](C)NC(=O)[C@@H]2C[C@@H](O)CN2C(=O)[C@@H](c2cc(OC3CCC(CN4CCC(c5ccc6c(c5)-n5c(nc(=O)c7c(Cl)cccc75)C6(C)C)CC4)CC3)no2)C(C)C)cc1 (some centres unmarked) [Compound B38] please.
< 100 nM

Report DC50 for Cc1ncsc1-c1ccc([C@H](C)NC(=O)[C@@H]2C[C@@H](O)CN2C(=O)[C@@H](NC(=O)CCCn2cc(-c3ccc4c(c3)C(C)(C)c3nc(=O)c5c(Cl)cccc5n3-4)cn2)C(C)(C)C)cc1 [Compound B93] please.
100 to 500 nM

Report DC50 for Cc1ncsc1-c1ccc([C@H](C)NC(=O)[C@@H]2C[C@@H](O)CN2C(=O)[C@@H](NC(=O)CCn2cc(-c3ccc4c(c3)-n3c(nc(=O)c5c(Cl)cccc53)C4(C)C)cn2)C(C)(C)C)cc1 [Compound B92] please.
> 1000 nM

Report DC50 for CC(=O)c1ccc([C@H](C)NC(=O)[C@@H]2C[C@@H](O)CN2C(=O)[C@H](C(C)C)n2cc([C@H]3CC[C@H](CN4CCC(c5ccc6c(c5)-n5c(nc(=O)c7c(Cl)cccc75)C6(C)C)CC4)CC3)nn2)cc1 [Compound B134] please.
< 100 nM

Report DC50 for Cc1cc(C(C(=O)N2C[C@H](O)C[C@H]2C(=O)N[C@@H](CN2CCC(CN3CCC(c4cccc5c4C(C)(C)c4nc(=O)c6c(Cl)cccc6n4-5)CC3)CC2)c2ccc(-c3scnc3C)cc2)C(C)C)on1 (some centres unmarked) [Compound B139] please.
< 100 nM

Report DC50 for Cc1ncsc1-c1ccc2c(c1)CC[C@H]2NC(=O)[C@@H]1C[C@@H](O)CN1C(=O)[C@@H](n1cc([C@H]2CC[C@H](CN3CCC(c4ccc5c(c4)-n4c(nc(=O)c6c(Cl)cccc64)C5(C)C)CC3)CC2)nn1)C(C)(C)C [Compound B122] please.
100 to 500 nM

Report DC50 for Cc1nc(C)c(-c2ccc([C@H](C)NC(=O)[C@@H]3C[C@@H](O)CN3C(=O)[C@@H](c3cc(N4CCC(c5cccc6c5C(C)(C)c5nc(=O)c7c(Cl)cccc7n5-6)CC4)no3)C(C)C)cc2)s1 [Compound B167] please.
< 100 nM

Report DC50 for Cc1ncsc1-c1ccc([C@H](CN2CCOCC2)NC(=O)[C@@H]2C[C@@H](O)CN2C(=O)[C@@H](n2cc([C@H]3CC[C@H](CN4CCC(c5ccc6c(c5)-n5c(nc(=O)c7c(Br)cccc75)C6(C)C)CC4)CC3)nn2)C(C)(C)C)cc1 [Compound B105] please.
< 100 nM

Report DC50 for Cc1ncsc1-c1ccc([C@H](C)NC(=O)[C@@H]2C[C@@H](O)CN2C(=O)[C@H](C(C)C)n2cc(CCCN3CCC(c4ccc5c(c4)C(C)(C)c4nc(=O)c6c(Cl)cccc6n4-5)CC3)nn2)cc1 [Compound B24] please.
< 100 nM

Report DC50 for Cc1ncsc1-c1ccc([C@H](C)NC(=O)[C@@H]2C[C@@H](O)CN2C(=O)[C@H](C(C)C)n2cc(OCCN3CCC(c4ccc5c(c4)C(C)(C)c4nc(=O)c6c(Cl)cccc6n4-5)CC3)cn2)cc1 [Compound B57] please.
100 to 500 nM
